# Procedure summary: Cytotoxicity against human PC3 cells after 48 hrs by alamar blue assay
# Format: functional, cell-based
# Assay setup: PC-3, 48 h
Binarize IC50 at 200 µM; below is Y, at or above is N.

> print(dat)
                                   compound  class.label
1  C=C(C)[C@@H]1CC=C(CN(OC)C2O[C@H](CO)[C@@H](N=[N+]=[N-])[C@H](O)[C@H]2O)CC1 (stereo partly drawn)            Y
2  C=CCOC(=O)NC[C@H]1OC(N(CC2=CC[C@@H](C(=C)C)CC2)OC)[C@H](O)[C@@H](O)[C@@H]1O (stereo partly drawn)            N
3  C=C(C)[C@@H]1CC=C(CN(OC)[C@@H]2O[C@H](CO)[C@@H](O)[C@H](O)[C@H]2NC(=O)N(C)N=O)CC1            N
4  C=C(C)[C@@H]1CC=C(CN(OC)C2O[C@@H](CO)[C@H](N=[N+]=[N-])[C@@H](O)[C@@H]2O)CC1 (stereo partly drawn)            N
5  C=CCOC(=O)N[C@H]1C(N(CC2=CC[C@@H](C(=C)C)CC2)OC)O[C@H](CO)[C@@H](O)[C@@H]1O (stereo partly drawn)            N

Hello, I'm reviewing records and need to know if IC50 of C=C(C)[C@@H]1CC=C(CN(OC)C2O[C@H](CN=[N+]=[N-])[C@@H](N=[N+]=[N-])[C@H](O)[C@H]2O)CC1 (stereo partly drawn) is below 200 µM. Could you check? Y

Repeat for the following compound: C=C(C)[C@@H]1CC=C(CN(OC)C2O[C@H](CO)[C@@H](O)[C@H](NC(=O)CCCCCCCCC)[C@H]2O)CC1 (stereo partly drawn) Y

Repeat for the following compound: C=C(C)[C@@H]1CC=C(CN(OC)C2O[C@H](CO)[C@@H](O)[C@H](O)[C@H]2N=[N+]=[N-])CC1 (stereo partly drawn) Y

Repeat for the following compound: C=C(C)[C@@H]1CC=C(CN(OC)C2O[C@H](CN=[N+]=[N-])[C@@H](O)[C@H](O)[C@H]2O)CC1 (stereo partly drawn) Y

Repeat for the following compound: C=C(C)[C@@H]1CC=C(CO)CC1 [PERILLYL ALCOHOL] N

Repeat for the following compound: C=C(C)[C@@H]1CC=C(CN(OC)C2OC[C@@H](O)[C@H](O)[C@H]2O)CC1 (stereo partly drawn) Y

Repeat for the following compound: C=C(C)[C@@H]1CC=C(CN(OC)C2OC[C@@H](N=[N+]=[N-])[C@H](O)[C@H]2O)CC1 (stereo partly drawn) Y

Repeat for the following compound: C=C(C)[C@@H]1CC=C(CN(OC)C2O[C@H](CNC(=O)CCCCCCCCC)[C@@H](O)[C@H](O)[C@H]2O)CC1 (stereo partly drawn) Y

Every entry's value here was drawn from ChEMBL document CHEMBL3351713.
